Data origin: the supplement of paper PMC12042874

# test summary: amyloid nucleation score (Sup35N fusion, yeast selection) (log enrichment); library NNK1; higher = more nucleation; inactive = no reads after selection;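 also: zero at mode of non-aggregating sequences after 7 days selection at 30°C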
readout name: amyloid nucleation score

Study these solved cases before continuing.
[[record]]
substance = "YATDCLLVSFGTSGECIHRL"
val = "inactive"

[[record]]
substance = "YTYMHRNDEFALM"
val = "inactive"

[[record]]
substance = "YMLSLSPPRRC"
val = 0.25

[[record]]
substance = "RYLYVPALPFNFLCL"
val = 1.63


Now for another entry.
Tell me the measured amyloid nucleation score of "FLFLTRRWEFVHMLPVSCEV" , please.
-0.817

* * *

Kindly supply the reported amyloid nucleation score values for the records listed here.
# test summary: amyloid nucleation score (Sup35N fusion, yeast selection) (log enrichment); library NNK1; higher = more nucleation; inactive = no reads after selection
Answer as a number with no unit attached.

Tell me the measured amyloid nucleation score of "KNFRRYWGPSLIEIG" , please.
1.13

Tell me the measured amyloid nucleation score of "LDLGEV" , please.
0.025

Tell me the measured amyloid nucleation score of "VLLGELIL" , please.
0.434

Tell me the measured amyloid nucleation score of "INMRKYSNTGSGRLIFNFAF" , please.
6.04

Tell me the measured amyloid nucleation score of "LTGSRIMCFSMWR" , please.
-1.02

Tell me the measured amyloid nucleation score of "TLDLWNVRFC" , please.
-0.057

Tell me the measured amyloid nucleation score of "SGMSGCPKCGSWGSNKWYLW" , please.
-0.004

Tell me the measured amyloid nucleation score of "GYENGDGDERD" , please.
-0.403

Tell me the measured amyloid nucleation score of "CRNTLPGP" , please.
-0.398

Tell me the measured amyloid nucleation score of "QSFSSSMHHDHDNWDQCCES" , please.
0.522

Tell me the measured amyloid nucleation score of "FVNFWN" , please.
0.473

Tell me the measured amyloid nucleation score of "SWNKGLREED" , please.
0.562

Tell me the measured amyloid nucleation score of "KGYGRFMSFF" , please.
-0.697

Tell me the measured amyloid nucleation score of "GLSWGIFALDTRSPGILRSV" , please.
-0.436

Tell me the measured amyloid nucleation score of "GHHLSVWRSNSCSCVWSITD" , please.
-0.184

Tell me the measured amyloid nucleation score of "DCWRRYYSSLLITVGGLFYK" , please.
-0.014

Tell me the measured amyloid nucleation score of "SGKLLISCVYSLENMC" , please.
1.39

Tell me the measured amyloid nucleation score of "WRGGKRHVAIFSISYSGTN" , please.
0.9

Tell me the measured amyloid nucleation score of "NGHSVASSVDAVMLCRYRGK" , please.
0.688

Tell me the measured amyloid nucleation score of "AELVQFSCLKLSFKSSENPS" , please.
3.06

Tell me the measured amyloid nucleation score of "FSVYAWGVFFDAVWFSCAVA" , please.
1.29

Tell me the measured amyloid nucleation score of "MYVFRVLASSVWKSMMLFDL" , please.
0.146

Tell me the measured amyloid nucleation score of "SAWKDAYFRVDVNEDFVS" , please.
0.154

Tell me the measured amyloid nucleation score of "YNVMYTFLHFAIGTAISRTW" , please.
-0.798

Tell me the measured amyloid nucleation score of "IRSSFMLRCIVSYVPCNTGL" , please.
-0.027

Tell me the measured amyloid nucleation score of "ISPCDIYRHLSIKGQSCDLI" , please.
0.004

* * *

# test summary: amyloid nucleation score (Sup35N fusion, yeast selection) (log enrichment); library NNK2; higher = more nucleation; inactive = no reads after selection
readout name: amyloid nucleation score
Answer as a number with no unit attached.

Tell me the measured amyloid nucleation score of "QTYIFFICLVVGMYIVCGKH" , please.
-0.17

Tell me the measured amyloid nucleation score of "YKWVVPDWSWVLEMALSLPT" , please.
0.346

Tell me the measured amyloid nucleation score of "LWLLMYGSW" , please.
2.4

Tell me the measured amyloid nucleation score of "SRDAKRALFDLDHRTRWDHK" , please.
4.62

Tell me the measured amyloid nucleation score of "SCNRRSSVVPWWWLTFRRWN" , please.
-1.16

Tell me the measured amyloid nucleation score of "QLCAMKMDSRIFCVSCFTML" , please.
7.05

Tell me the measured amyloid nucleation score of "TRMHESIWV" , please.
1.73

Tell me the measured amyloid nucleation score of "SRPFMIYREYVASSIVSNQL" , please.
-0.606

Tell me the measured amyloid nucleation score of "IARDYVQ" , please.
-0.918

Tell me the measured amyloid nucleation score of "IYKILLLLAGRRGFDCLVFS" , please.
-0.926

Tell me the measured amyloid nucleation score of "VSLNCKRRALMTWYVKGLFG" , please.
-0.073

Tell me the measured amyloid nucleation score of "YSHATFSPASNSYQKG" , please.
0.146

Tell me the measured amyloid nucleation score of "VVGFSMFYKWDMNSMVSRMS" , please.
2.27

Tell me the measured amyloid nucleation score of "DGRIVYEPSKSARFWKVKCL" , please.
-0.335

Tell me the measured amyloid nucleation score of "SDPHMHD" , please.
0.521

Tell me the measured amyloid nucleation score of "FLMANSFFCNCFYTVYFTHC" , please.
4.52

Tell me the measured amyloid nucleation score of "LFAIKTGQDHCNTRLKKSQC" , please.
-0.087

Tell me the measured amyloid nucleation score of "FSVRLSELSMTNLSTQYEIS" , please.
1.82

Tell me the measured amyloid nucleation score of "FKFKLGNGIMDGSRMGHWAL" , please.
1.17

Tell me the measured amyloid nucleation score of "LLFLAG" , please.
-0.358

Tell me the measured amyloid nucleation score of "PSYDVCSMDCLDEKDGFMWL" , please.
0.25

Tell me the measured amyloid nucleation score of "LRFMNPRSALRYTKVSCTGN" , please.
-0.587

Tell me the measured amyloid nucleation score of "CDSAAFRPYLFSAENLSLYK" , please.
0.53

Tell me the measured amyloid nucleation score of "MVLLCIFQ" , please.
8.27

Tell me the measured amyloid nucleation score of "SVRMVFIGNLSRGNWSALWS" , please.
7.63

Tell me the measured amyloid nucleation score of "RVKEMWGVYVGQHGYTANAL" , please.
0.842

Tell me the measured amyloid nucleation score of "VFFGVSNVVSATYSYWLRIQ" , please.
-0.627

Tell me the measured amyloid nucleation score of "YAYAEWERNRWRRDDNLNVE" , please.
-0.251

Tell me the measured amyloid nucleation score of "AAVSSCLLFYSC" , please.
3.5

Tell me the measured amyloid nucleation score of "GHSCLMVNNACSLDGHEESV" , please.
1.16

Tell me the measured amyloid nucleation score of "KAKLMKRSFWMWSCLLCFR" , please.
0.912

Tell me the measured amyloid nucleation score of "VTGNKEVMKIRCWVAHEESD" , please.
1.32

Tell me the measured amyloid nucleation score of "GINVSYLFIPHVGKICGNYN" , please.
7.15

Tell me the measured amyloid nucleation score of "IPASDRYKVFRLWHQFRLVG" , please.
-0.001

Tell me the measured amyloid nucleation score of "DTRLIGECQLGSGVTVLSLG" , please.
0.252

Tell me the measured amyloid nucleation score of "FFFVFVGDVR" , please.
2.08

Tell me the measured amyloid nucleation score of "SCYRFSRSRS" , please.
-0.359

Tell me the measured amyloid nucleation score of "LLHSSYIIK" , please.
0.115

* * *

# test summary: amyloid nucleation score (Sup35N fusion, yeast selection) (log enrichment); library NNK3; higher = more nucleation; inactive = no reads after selection
readout name: amyloid nucleation score

[[record]]
substance = "VFCSSDTAFPEGTTVSSRSR"
readout_name = "amyloid nucleation score"
val = "inactive"

[[record]]
substance = "LSMTGV"
readout_name = "amyloid nucleation score"
val = "inactive"

[[record]]
substance = "ISWWAMCACSARKVRF"
readout_name = "amyloid nucleation score"
val = "inactive"

[[record]]
substance = "YYKRYGGYPGNQHMSVGHRF"
readout_name = "amyloid nucleation score"
val = "inactive"

[[record]]
substance = "GVGPVGRF"
readout_name = "amyloid nucleation score"
val = "inactive"


Tell me the measured amyloid nucleation score of "LRPRYSAYILQSRR" , please.
inactive

Tell me the measured amyloid nucleation score of "IYIFGFQTVCNSLIGGLSIA" , please.
inactive

Tell me the measured amyloid nucleation score of "KQADVFIIMSRVIGNRGCLF" , please.
inactive

Tell me the measured amyloid nucleation score of "IGPIWVPYHMSIIRSLLFGI" , please.
inactive

* * *

# test summary: amyloid nucleation score (Sup35N fusion, yeast selection) (log enrichment); library NNK1; higher = more nucleation; inactive = no reads after selection
readout name: amyloid nucleation score

[[record]]
substance = "NIISEN"
val = "inactive"

[[record]]
substance = "FTCMCH"
val = "inactive"

[[record]]
substance = "RMDWWLEERASSSCDEELLT"
val = "inactive"

